Reference source: PubChem BioAssay AID1159580

assay: chemical genetic growth profiling, strain panel (AID 1159580);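 note: tested at 20 µM; growth read once vehicle control cultures reached saturation at 30 °C; 1 = growth at the plate median or of vehicle wells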; conditions: S. cerevisiae deletion strains, growth OD, locus YOR231W, strain MKK1, active compounds read low
Screen size: about 5,500 compounds; about 2,000 (36%) were called active. Not shown: some 18% with an inconclusive outcome. The list shows a part of the results.
normalized growth less than 0.9 is criterion met; normalized growth greater than or equal to 0.9 is criterion not met.

Some solved cases for reference:
1. O=C1NS(=O)(=O)c2ccccc21; criterion not met
2. Cc1ccc2nc3c(nc2c1)-c1ccccc1C3=O; criterion met
3. ClC1C(Cl)C(Cl)C(Cl)C(Cl)C1Cl (centres undefined); criterion not met

Incoming: I'd appreciate it if you could check whether O=C1C(=O)c2ccccc2C(O)=C1C1CCC(c2ccc(Cl)cc2)CC1 (centres undefined) has normalized growth smaller than 0.9.
Outgoing: criterion not met

Incoming: Consider the compound `O=c1c(O)c(-c2ccccc2)oc2cccc(O)c12` . Is its normalized growth strictly less than 0.9?
Outgoing: criterion met

Incoming: Could you please tell me whether normalized growth recorded for `O=C(O)c1cccnc1C(=O)O` is less than 0.9?
Outgoing: criterion not met

Incoming: Is the reported normalized growth for Cc1ccc(O)c(C(CCN(C(C)C)C(C)C)c2ccccc2)c1 (centres undefined) strictly below 0.9?
Outgoing: criterion not met

Incoming: Identify whether the compound `CCCCCC/C=C\CCCCCCCc1cccc(O)c1C(=O)O` records normalized growth below 0.9.
Outgoing: criterion not met

Incoming: Identify whether the compound N#CC(C(=O)Nc1cccc(C(F)(F)F)c1)C(=S)Nc1ccccc1Cl (centres undefined) records normalized growth below 0.9.
Outgoing: criterion not met

###

# key: entry, value: normalized growth
assay: chemical genetic growth profiling, strain panel (AID 1159580); conditions: S. cerevisiae deletion strains, growth OD, locus YNL183C, strain NPR1, active compounds read low
Hit rate of the full screen: of about 5,500 compounds, about 2,000 (36%) were called active. Another 18% or so got no clear call; they are omitted. The list shows a part of the results.
Just the number, please.

1. CNC(C)[C@@H]1CC[C@@H](N)[C@@H](OC2[C@@H](N)C[C@@H](N)[C@H](OC3OC[C@](C)(O)[C@H](NC)[C@H]3O)[C@H]2O)O1 (stereo partly specified); 0.97
2. CC(C)c1cc2c(c(O)c1O)[C@@]1(C(=O)O)CCCC(C)(C)C1CC2 (stereo partly specified); 0.9
3. C[C@H]1C(=O)CCC2[C@]3(C)CC[C@@]4(C)C5CC(C)(C)CC[C@]5(C)CC[C@]4(C)C3CC[C@@]21C (stereo partly specified); 0.981

Now let's try a different one.
Incoming: Recorded normalized growth for `COc1ccc(CC(=O)c2ccc(O)cc2O)cc1` , please?
Outgoing: 0.91

###

assay: chemical genetic growth profiling, strain panel (AID 1159580); settings: S. cerevisiae deletion strains, growth OD, locus YGL248W, strain PDE1, active compounds read low
Hit rate of the full screen: of about 5,500 compounds, about 2,000 (36%) were called active. Inconclusive results (about 18%) are left out. This is one part of the list.
endpoint.label: normalized growth

Incoming: Could you share which normalized growth value was measured for `O=C1c2ccccc2C(=O)c2ccccc21` ?
Outgoing: 1.01 (inactive)

Incoming: GET /values?readout=normalized growth&item= CN1CCCCC1c1ccc(-c2cccnc2)nc1 (centres undefined)
Outgoing: 1.01 (inactive)

Incoming: Could you tell me which normalized growth is on file for C[C@]12[C@H](O)CC3C(CC[C@@H]4C[C@@H](O)CC[C@]34C)[C@@]1(O)CC[C@@H]2C1=CC(=O)OC1 (some centres undefined) ?
Outgoing: 1.01 (inactive)

Incoming: Consider the compound shown here: `Cn1c(=O)[nH]c2ncn(C)c2c1=O` What is its recorded normalized growth?
Outgoing: 1.01 (inactive)

###

experiment: chemical genetic growth profiling, strain panel (AID 1159580); conditions: S. cerevisiae deletion strains, growth OD, locus YOR265W, strain rbl2, active compounds read low
Hit rate of the full screen: of about 5,500 compounds, about 2,000 (36%) were called active. Roughly 18% stayed inconclusive and do not appear here. This is one part of the list.
This section presents molecules with their documented normalized growth values.
Give the value as a plain number.

Reference set (4 entries):
1. C=C[C@H]1CN2CC[C@H]1C[C@H]2[C@H](O)c1ccnc2ccccc12; 0.994
2. COC1=CC23CCCN2CCc2cc4c(cc2C3C1O)OCO4 (stereo not given); 1.05
3. CCCC(=O)Nc1ccc(OCC(O)CNC(C)C)c(C(C)=O)c1 (stereo not given); 1.02
4. COc1cc(O)ccc1C(C)=O; 1.02

Incoming: Which normalized growth is reported for this molecule? C[N+]12CCC(CC1)C(OC(=O)C(O)(c1ccccc1)c1ccccc1)C2 (stereo not given)
Outgoing: 0.986

###

assay: chemical genetic growth profiling, strain panel (AID 1159580);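 note: tested at 20 µM; growth read once vehicle control cultures reached saturation at 30 °C; 1 = growth at the plate median or of vehicle wells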; details: S. cerevisiae deletion strains, growth OD, locus YHR200W, strain rpn10
Out of some 5,500 compounds screened, about 2,000 (36%) were called active. Another 18% or so got no clear call; they are omitted. No stated cut-off is given here; in the data, active means normalized growth mostly below about 0.91 (no sharp cut-off); inconclusive means no clear call, values can overlap the other calls; inactive means mostly above about 0.92. The list shows a part of the results.
# valid calls are active, inactive; nothing else

Here's what some known entries look like.
1) O=c1c(O)cccc2cc(O)c(O)c(O)c12; active
2) C=C(C)C1Cc2c(ccc(C(=O)O)c2O)O1 (configuration not stated); inactive
3) N[C@@H](C(=O)N[C@@H]1C(=O)N2C(C(=O)O)=C(Cl)CS[C@H]12)c1ccccc1; inactive
4) C[N+]12CCC(CC1)C(OC(=O)C(O)(c1ccccc1)c1ccccc1)C2 (configuration not stated); inactive
5) CC(C)c1cc2c(c(O)c1O)[C@@]1(C(=O)O)CCCC(C)(C)C1CC2 (some centres not stated); inactive

Incoming: Field: outcome | Entry: `Cn1c(=O)c2c(ncn2CCCl)n(C)c1=O`
Outgoing: inactive

Incoming: Recorded test outcome, item COC(=O)C(O)[C@H]1C(C)(C)[C@@H](OC(C)=O)[C@@H]2CC3=C4CC(=O)O[C@@H](c5ccoc5)[C@]4(C)CCC3[C@@]1(C)C2=O (some centres not stated)
Outgoing: inactive

Incoming: What call does the record list for `NC(=NCCCCCCN=C(N)N=C(N)Nc1ccc(Cl)cc1)N=C(N)Nc1ccc(Cl)cc1` ?
Outgoing: active

Incoming: What did this assay record as the result for `O=c1c(O)c(-c2ccccc2)oc2cc(O)ccc12` ?
Outgoing: active

Incoming: Outcome logged for `Oc1cccc2cccnc12` in this assay:
Outgoing: active

Incoming: Lab log entry: `COc1cc(OC)c2c(OC)c(-c3ccc4c(c3)OCO4)c(=O)oc2c1` — outcome as called in the assay?
Outgoing: inactive

Incoming: # outcome recorded in this test, key = Cc1ccc(O)c(C(CCN(C(C)C)C(C)C)c2ccccc2)c1 (configuration not stated)
Outgoing: inactive

###

experiment: chemical genetic growth profiling, strain panel (AID 1159580);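 note: tested at 20 µM; growth read once vehicle control cultures reached saturation at 30 °C; 1 = growth at the plate median or of vehicle wells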; settings: S. cerevisiae deletion strains, growth OD, locus YGR135W, strain pre9, active compounds read low
About 2,000 (36%) of roughly 5,500 compounds were called active. About 18% were inconclusive and are not listed. This is one part of the list.
endpoint.label: normalized growth

Example entries and their recorded answers appear below.
1) C=C[C@H]1CN2CC[C@H]1C[C@H]2[C@H](O)c1ccnc2ccccc12; 0.974 (inactive)
2) COc1ccc(-c2c(OC)c3c(OC)c4c(cc3oc2=O)OC(C)(C)C=C4)cc1; 1.02 (inactive)
3) O=C(c1ccccc1)c1ccc2n1CCC2C(=O)O (stereo not drawn); 0.974 (inactive)
4) COc1ccc(NS(=O)(=O)c2ccc(N)cc2)nn1; 0.982 (inactive)

Incoming: State the recorded normalized growth for this entry: `CC(C)Cn1c(=O)n(C)c(=O)c2[nH]cnc21`
Outgoing: 0.998 (inactive)

Incoming: For the molecule `O=C1C=C(O)c2ccccc2C1=O` , what normalized growth is on record?
Outgoing: 0.973 (inactive)

Incoming: So what does the record say about normalized growth for `CC(C)[C@@H]1CC[C@@H](C)C[C@H]1OC(=O)c1ccccc1` ?
Outgoing: 0.974 (inactive)

Incoming: Name the reported normalized growth value associated with the molecule COP(=O)(NC(C)=O)SC (stereo not drawn)
Outgoing: 1 (inactive)

###

assay: chemical genetic growth profiling, strain panel (AID 1159580);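 note: tested at 20 µM; growth read once vehicle control cultures reached saturation at 30 °C; 1 = growth at the plate median or of vehicle wells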; conditions: S. cerevisiae deletion strains, growth OD, locus YOR061W, strain CKA2, active compounds read low
Out of some 5,500 compounds screened, about 2,000 (36%) were called active. Another 18% or so got no clear call; they are omitted. Some of the results follow.
Listed next: entries and their corresponding normalized growth.
Keep it simple and answer with nothing but the number.

1) COc1ccc(NS(=O)(=O)c2ccc(N)cc2)nn1; 1.02

Incoming: What value of normalized growth has been recorded for this entry: CC(=O)OC1CCC23CC1(C)CCC2C(C)(C)CC3OC(C)=O (centres undefined)
Outgoing: 1.03

Incoming: Query (compound): `CC(=O)OCC1=C(C(=O)O)N2C(=O)[C@@H](NC(=O)CSc3ccncc3)[C@H]2SC1` ; field requested: normalized growth
Outgoing: 0.969

Incoming: For `COc1ccc(-c2c(O)c3c(OC)c4c(cc3oc2=O)OC(C)(C)C=C4)cc1` , what is its reported normalized growth?
Outgoing: 0.952

Incoming: Given the entry `COc1cc([C@@H]2c3cc4c(cc3[C@H](O)[C@H]3COC(=O)[C@H]23)OCO4)cc(OC)c1OC` , report its measured normalized growth.
Outgoing: 1.01

Incoming: Looking for the measured normalized growth of `CN1C(=O)CC[C@H]1c1cccnc1` , can you help?
Outgoing: 1.01
